# System: Candida albicans
# protocol.text: Antifungal activity against Candida albicans, activity expressed as minimum inhibitory concentration (ug/mL)
# Format: functional
# applied.conditions: Candida albicans; read-out: MIC
property.name: MIC (µg/mL)
Write it as a number; the unit µg/mL goes unstated.

Given the entry `CC(=O)O[C@@H]1[C@@H](O)CN[C@@H]1Cc1ccccc1` , what MIC was observed with Candida albicans? 32

# returns recorded MIC (system: Candida albicans) for `CC(=O)O[C@@H]1[C@@H](O)CN[C@@H]1Cc1ccc(C)cc1` 8

GET /values?readout=MIC&system=Candida albicans&item= COc1ccc(C[C@H]2NC[C@H](O)[C@H]2OC(C)=O)cc1 (racemic) 8

====

Record form. Attribute: MIC. Fill in for each entry.
# Test system: Epidermophyton floccosum
# protocol.text: Antifungal activity against Epidermophyton floccosum, activity expressed as minimum inhibitory concentration (ug/mL)
# Format: functional
# applied.conditions: Epidermophyton floccosum; read-out: MIC

Field: MIC (Epidermophyton floccosum). Entry: `Cc1ncc([N+](=O)[O-])n1CCO` > 32 µg/mL

Request: MIC, test system Epidermophyton floccosum, entry `COc1cccc(C[C@H]2NC[C@H](O)[C@H]2OC(C)=O)c1` > 32 µg/mL

Item: COc1ccc(C(c2ccccc2)[C@H]2NC[C@H](O)[C@H]2OC(C)=O)cc1 (stereo partly drawn) Test system: Epidermophyton floccosum Read-out: MIC Value: ? > 32 µg/mL

====

# Test system: Candida albicans
# protocol.text: Antifungal activity against Candida albicans, activity expressed as minimum inhibitory concentration (ug/mL)
# Assay type: functional
# applied.conditions: Candida albicans; read-out: MIC
property.name: MIC

Consider the compound shown here: COc1ccc(C(c2ccccc2)[C@H]2NC[C@H](O)[C@H]2OC(C)=O)cc1 (stereo partly drawn) What is its recorded MIC? > 32 µg/mL

I would be grateful if you could share the reported MIC for `COc1cccc(C[C@H]2NC[C@H](O)[C@H]2OC(C)=O)c1` . > 32 µg/mL

Please report the recorded MIC for `Cc1ncc([N+](=O)[O-])n1CCO` . > 32 µg/mL
